Experiment Notes: chemical genetic growth profiling, strain panel (AID 1159580);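 further: tested at 20 µM; growth read once vehicle control cultures reached saturation at 30 °C; 1 = growth at the plate median or of vehicle wells; lower values mean less growth of the strain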
Condition Context: S. cerevisiae deletion strains, growth OD, locus YER016W, strain bim1, active compounds read low
In all, about 5,500 compounds went through this assay and about 2,000 (36%) were called active. Inconclusive results (about 18%) are left out. The list shows a part of the results.
Reported Endpoint: normalized growth

Recall and state the measured normalized growth for COC(=O)/C(=C1\OC(=O)C(c2ccccc2)=C1O)c1ccccc1 .
0.984 (inactive)

Hello, please tell me recorded normalized growth for this one: O=P1(N(CCCl)CCCl)NCCCO1 (stereo unspecified)
0.997 (inactive)

For every listed record, write down its normalized growth.
1. CN(C)[C@@H]1C(=O)C(C(N)=O)=C(O)[C@@]2(O)C(=O)C3=C(O)c4c(O)ccc(Cl)c4[C@@H](O)[C@H]3C[C@@H]12
2. CC1=CC(=O)c2ccccc2C1=O
3. CC(C)CCCC(C)[C@H]1CCC2C3CC=C4CC(=O)CC[C@]4(C)C3CC[C@@]21C (stereo partly specified)
4. CN(C)[C@@H]1C(=O)C(C(N)=O)=C(O)[C@@]2(O)C(=O)C3=C(O)c4c(O)ccc(Cl)c4[C@@](C)(O)[C@H]3C[C@@H]12

1: 0.994 (inactive); 2: 1.02 (inactive); 3: 0.987 (inactive); 4: 0.984 (inactive)

For each of the compounds below, note its normalized growth.
1. CC(=O)Oc1ccc(/C=C/c2cc(OC(C)=O)cc(OC(C)=O)c2)cc1
2. CNNC
3. CN(C)[C@@H]1C(=O)C(C(=O)NCN2CCCC2)=C(O)[C@@]2(O)C(=O)C3=C(O)c4c(O)cccc4[C@@](C)(O)[C@H]3C[C@@H]12
4. CC(C)CCCC(C)C1CCC2C3C[C@@H](O)[C@@]4(O)C[C@@H](O)CC[C@]4(C)C3CC[C@]12C (stereo partly specified)
5. CCC(C)C(=O)OC1[C@@H]2CC3=C4CC(=O)O[C@@H](c5ccoc5)[C@]4(C)CCC3[C@@](C)(C2=O)[C@@H](CC(=O)OC)C1(C)C (stereo partly specified)

0.976 (inactive)
1.01 (inactive)
1.02 (inactive)
0.994 (inactive)
0.999 (inactive)

====

Please provide measured normalized growth for the entries that follow.
Experiment Notes: chemical genetic growth profiling, strain panel (AID 1159580);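 further: tested at 20 µM; growth read once vehicle control cultures reached saturation at 30 °C; 1 = growth at the plate median or of vehicle wells; lower values mean less growth of the strain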
Condition Context: S. cerevisiae deletion strains, growth OD, locus YCL011C, strain gbp2, active compounds read low
Screen size: about 5,500 compounds; about 2,000 (36%) were called active. Inconclusive results (about 18%) are left out. The list shows a part of the results.
Numbers only.

Name the recorded normalized growth of the molecule listed here: CC(C)CCCC(C)[C@H]1CCC2C3C(=O)C=C4C[C@@H](O)CC[C@]4(C)C3CC[C@@]21C (some centres undefined)
0.994

For each of the items listed, what is its normalized growth?
1. O=C1NC(O)=NC1(c1ccccc1)c1ccccc1
2. CC(=O)Oc1ccc(O)cc1
3. CC(=O)Oc1cccc(O)c1

1.02
0.989
1.02

====

Experiment Notes: chemical genetic growth profiling, strain panel (AID 1159580);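 further: tested at 20 µM; growth read once vehicle control cultures reached saturation at 30 °C; 1 = growth at the plate median or of vehicle wells; lower values mean less growth of the strain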
Condition Context: S. cerevisiae deletion strains, growth OD, locus YOL006C, strain TOP1, active compounds read low
About 2,000 (36%) of roughly 5,500 compounds were called active. Another 18% or so got no clear call; they are omitted. Some of the results follow.
Reported Endpoint: normalized growth

Supply reported normalized growth belonging to this compound: CCCOc1ccc2nc(NC(=O)OC)[nH]c2c1
0.983 (inactive)

Output normalized growth of NNCc1cccc(O)c1
0.996 (inactive)

Complete the entry with normalized growth for OCc1ccccc1-c1ccccc1
0.997 (inactive)

Read off the recorded normalized growth for CCN1CCN(C(=O)NC(C(=O)N[C@@H]2C(=O)N3[C@@H]2SC(C)(C)[C@@H]3C(=O)O)c2ccccc2)C(=O)C1=O (stereo not given in full)
1.02 (inactive)

Consider now this further compound.
Tell me measured normalized growth for CC(=O)O[C@@H]1CC[C@@]2(C)C(C[C@@H](OC(C)=O)[C@@]3(C)C4=CC(=O)O[C@@H](c5ccoc5)[C@]4(C)CCC23)C1(C)C (stereo not given in full) please.
0.986 (inactive)
